The values you see were collected from patent US20260132197A1.

# ASSAY_TARGET: T1, Human CD47-C33G (human, UniProt Q08722 19-135)
# T1 construct: also called CD47 mutein with C33G mutation
# T1 sequence (Q08722 19-135 C33G limits assumed): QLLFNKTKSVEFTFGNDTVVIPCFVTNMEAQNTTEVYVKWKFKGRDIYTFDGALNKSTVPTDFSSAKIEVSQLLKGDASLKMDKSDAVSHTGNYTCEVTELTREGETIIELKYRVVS
# ASSAY_NOTES: SPR, IgG captured, CD47 in flow; exp 4;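 note: biacore T200 SPR using IgG from transfected HEK293 supernatants against wild-type human CD47 or its C33G mutein, rates fitted to association and dissociation curves, KD estimated from them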
VALUE_TYPE: pKd
Worth noting: pKd values are minus log10 of concentrations stated in mol/L.

Known results for binders:
| BINDER | pKd |
| --- | --- |
| 108VH5.M21 / 108VL1.M5 (antibody, human IgG4 S228P, kappa, V domains shown, Full-length IgG4 (S228P), kappa; also called VH5.M21 VL1.M5) VH: EVQLVQSGAEVKKPGASVKVSCKASGYTFTHHWMHWVRQAPGQGLEWMGMIDASDFETRYAQKFQGRVTMTRDTSTSTVYMELSSLRSEDTAVYYCARLGRYYFDYWGQGTLVTVSS VL: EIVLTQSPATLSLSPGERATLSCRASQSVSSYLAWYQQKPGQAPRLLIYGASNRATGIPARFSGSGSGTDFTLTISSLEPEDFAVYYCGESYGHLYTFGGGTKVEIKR | 7.29 |
| 108VH5.M26 / 108VL1.M5 (antibody, human IgG4 S228P, kappa, V domains shown, Full-length IgG4 (S228P), kappa; also called VH5.M26 VL1.M5) VH: EVQLVQSGAEVKKPGASVKVSCKASGYTFTHHWMHWVRQAPGQGLEWMGMIDASDVETRYAQKFQGRVTMTRDTSTSTVYMELSSLRSEDTAVYYCARLGRYYFDYWGQGTLVTVSS VL: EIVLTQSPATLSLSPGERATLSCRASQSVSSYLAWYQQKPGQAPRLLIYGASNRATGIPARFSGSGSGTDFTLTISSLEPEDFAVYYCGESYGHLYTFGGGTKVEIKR | 7.64 |

[ask] Endpoint output: pKd of 108VH5.M25 / 108VL1.M5 (antibody, human IgG4 S228P, kappa, V domains shown, Full-length IgG4 (S228P), kappa; also called VH5.M25 VL1.M5) VH: EVQLVQSGAEVKKPGASVKVSCKASGYTFTHHWMHWVRQAPGQGLEWMGMIDASDRETRYAQKFQGRVTMTRDTSTSTVYMELSSLRSEDTAVYYCARLGRYYFDYWGQGTLVTVSS VL: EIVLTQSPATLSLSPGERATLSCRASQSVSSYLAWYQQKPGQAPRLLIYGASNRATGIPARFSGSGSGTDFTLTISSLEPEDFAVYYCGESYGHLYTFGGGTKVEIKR . Value?
[reply] 7.48
